Molecular target: recombinant homotrimeric HA A/Wisconsin/67/05 H3N2 (Influenza A virus A/Wisconsin/67/2005(H3N2))
Assay: protein microarray, purified IgG, trimeric HA
Conditions: remark: other sources report otherwise
measure: Trimeric HA Binding: RLU (RLU)
All answers are understood in RLU, so give the number only.

Examples with their reported Trimeric HA Binding: RLU follow.
- binder: "TCN-539 (5056_A08) (antibody, V domains shown) VH: QVQLVESGGGVVQPGRSLRLSCAASEITFITYAMHWVRQAPGKGLEWVALISDDGSNKFYADSVKGRFTISRDNSKNTLYLQMNSLRAEDTAAYYCAREGVYFDSGTYRGYFDYWGQETLVTVSS VL: EIVLTQSPATLSLSPGERATLSCRASQSVSSYLAWYQQKPGQAPRLLIYDASNRATGIPARFSGSGSGTDFTLTISSLEPEDFAVYYCQQRSHWPPITFGQGTRLEIK"
  result: 8850
- binder: "TCN-528 (5087_P17) (antibody, V domains shown) VH: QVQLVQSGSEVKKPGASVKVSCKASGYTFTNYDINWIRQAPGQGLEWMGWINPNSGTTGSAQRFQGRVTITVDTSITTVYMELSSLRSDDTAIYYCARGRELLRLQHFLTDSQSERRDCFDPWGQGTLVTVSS VL: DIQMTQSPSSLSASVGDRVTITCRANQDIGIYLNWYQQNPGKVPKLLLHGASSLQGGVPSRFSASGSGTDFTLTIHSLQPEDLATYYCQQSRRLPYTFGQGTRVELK"
  result: 1060
- binder: "TCN-532 (5262_H18) (antibody, V domains shown) VH: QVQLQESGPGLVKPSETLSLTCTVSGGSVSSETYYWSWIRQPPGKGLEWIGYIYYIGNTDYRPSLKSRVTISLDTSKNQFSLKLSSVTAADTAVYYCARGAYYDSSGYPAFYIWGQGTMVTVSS VL: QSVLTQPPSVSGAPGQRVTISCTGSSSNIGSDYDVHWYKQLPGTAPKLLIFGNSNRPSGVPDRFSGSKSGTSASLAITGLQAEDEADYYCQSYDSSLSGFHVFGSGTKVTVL"
  result: 25200
- binder: "TCN-555 (5246_L16) (antibody, V domains shown) VH: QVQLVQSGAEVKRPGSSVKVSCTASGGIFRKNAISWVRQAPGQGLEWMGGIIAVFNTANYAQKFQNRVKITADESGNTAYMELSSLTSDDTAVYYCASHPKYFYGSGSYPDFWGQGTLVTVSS VL: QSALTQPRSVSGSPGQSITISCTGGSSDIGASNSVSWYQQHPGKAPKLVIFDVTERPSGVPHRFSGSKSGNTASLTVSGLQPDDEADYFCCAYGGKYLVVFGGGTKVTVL"
  result: 369
- binder: "TCN-554 (5277_M05) (antibody, V domains shown) VH: QVQLVQSGADLKKPGASVKVSCKASGYTFTDYYIHWVRQAPGQGLEWMGWINPESGDTKYAQKFQGRVTMTRDTSITTAYMELGRLRSDDTAVYYCARDVSTTWSWFAPWGQGTLVTVSS VL: DIVMTQSPDSLAVSLGERATINCRSSQSIFHNSNNENYLAWYQQKPGQPPKLLIYWASTRESGVPDRFSGSGSGTDFTLTISSLQAEDVAVYFCQQYYNAPLTFGGGTKVEIK"
  result: 27100

Query: # get_value(readout='Trimeric HA Binding: RLU', item= TCN-522 (3212_I12) (antibody, V domains shown) VH: QVQLQQWGAGLLKPSETLSLTCTVSGGSLTDYSWNWIRQPPGKGLEWIGDTLHNGYTNYNPSLRGRVSISIDTSKNQVSLRLTSVTAADTALYYCARGSGGYGGFDYFGKLRTWDFWGQGTLVTVSS VL: DIQLTQSPSSLSASVGDRVTITCRASQGIRNDLGWYQQKPGNAPKRLIFGASSLQSGVPSRFSGSGSGTEFTLTISSLQPEDFATYYCLQHNSYPYTFGQGTKLEIK )
Result: 108

Query: # get_value(readout='Trimeric HA Binding: RLU', item= TCN-530 (5248_H10a) (antibody, V domains shown) VH: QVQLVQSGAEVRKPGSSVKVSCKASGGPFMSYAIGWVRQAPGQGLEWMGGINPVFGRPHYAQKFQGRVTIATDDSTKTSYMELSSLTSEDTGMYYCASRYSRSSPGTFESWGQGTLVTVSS VL: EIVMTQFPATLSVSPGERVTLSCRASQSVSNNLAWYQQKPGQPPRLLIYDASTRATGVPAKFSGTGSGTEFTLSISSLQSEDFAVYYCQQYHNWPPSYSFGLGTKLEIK )
Result: 132

Query: # get_value(readout='Trimeric HA Binding: RLU', item= TCN-552 (5249_I23) (antibody, V domains shown) VH: QVQVVQSGAEVKKPGSSVRVSCQASGGTFMNYAIIWVRRAPGQGLEWMGGIIPVFPTPNYAQMFQGRVTISTDESRSTSFLELTNLRYEDTAVYYCARRIYHGGNSGFDFWGQGTLVTVSS VL: EIVLTQSPATLSLSPGERATLSCRASQSVGNYLAWYQQKPGQAPRLLIYDSSNRAPGIPARFSGSGSGTDFTLTISSLAPEDFAVYYCQQRSKWPPMYSFGHGTKLEIK )
Result: 123

Query: # get_value(readout='Trimeric HA Binding: RLU', item= TCN-545 (5082_I15) (antibody, V domains shown) VH: QVQLQQWGAGLLKPSETLSLSCAVFGGSFSDYYWTWIRQPPGKGLEWIGEIKHSGRTNYNPSLESRVTISVDTSKNQFSLKLSSVTAADTAIYYCARGTDPDTEGYCRSGSCSAFDFWGQGTLVTVSS VL: EIVLTQSPGTLSLSPGERATLSCRASHFVNYRSLAWYQQTPGQVPRLLIYGASTRATGIPDRFSGSGSGTDFTLTISRLEPEDFAVYFCQQYGGSPRYTFGQGTRLEIK )
Result: 23700

Query: # get_value(readout='Trimeric HA Binding: RLU', item= TCN-535 (5246_P19) (antibody, V domains shown) VH: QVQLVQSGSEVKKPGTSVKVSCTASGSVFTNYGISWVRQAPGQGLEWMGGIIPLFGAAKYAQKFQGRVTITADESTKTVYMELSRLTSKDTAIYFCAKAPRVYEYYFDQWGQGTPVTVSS VL: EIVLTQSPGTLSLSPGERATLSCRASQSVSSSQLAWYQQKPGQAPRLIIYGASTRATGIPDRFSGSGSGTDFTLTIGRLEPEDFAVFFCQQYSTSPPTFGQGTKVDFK )
Result: 148
